Value source: patent US7268146B2

Recorded melting point values for a group of molecules are listed next.

CCCN(CC1CC1)C(=O)c1c2c(nn1C)N(c1c(C)cc(C)cc1Cl)CCC2 [Example 10a]: 120.6 to 122 °C

Item under review: CCCC(CCC)c1c2c(nn1C)N(c1c(C)cc(C)cc1C)CCC2 [Example 7b] . Reported melting point?
91.5 to 92 °C

Next entry: Cc1cc(C)c(N2CCCc3c2nn(C)c3C(O)c2ccco2)c(C)c1 (centres unmarked) [Example 5i]
163.1 to 174.4 °C

Next entry: CCCC(CCC)c1c2c(nn1C)N(c1c(C)cc(C)cc1C)CCCC2 [Example 7d]
96 to 98.1 °C

Next entry: Cc1cc(C)c(N2CCCc3c2nn(C)c3C(=O)O)c(Cl)c1 [Example 8a]
247.8 to 248.3 °C
